All figures here come from the RepoRT retention time repository (doi:10.1039/c4mb00346b).

We begin with a simple list: items and their reported LC retention time.
experiment: HILIC, Merck SeQuant ZIC-pHILIC, 150 × 2.1 mm, 5 µm, 0.1 mL/min, estimated dead time 3.3 min; A: acetonitrile; B: water + 10 mM ammonium carbonate; gradient (min/%B) 0/20 30/80; conditions: stereoisomer not certain

# compound, LC retention time
records = [
    ("NC(=O)CC(N)C(=O)O (stereo not drawn)", "12.4 min"),
    ("O=C(O)C1OC(OP(=O)(O)OP(=O)(O)OCC2OC(n3ccc(=O)[nH]c3=O)C(O)C2O)C(O)C(O)C1O (stereo not drawn) [UDP-glucuronate]", "16.5 min"),
    ("O=C(O)CC(O)(CC(=O)O)C(=O)O [Citrate]", "15.5 min"),
    ("Nc1ncnc2c1ncn2C1OC2COP(=O)(O)OC2C1O (stereo not drawn)", "7.1 min"),
    ("NC(Cc1c[nH]c2ccccc12)C(=O)O (stereo not drawn)", "8.7 min"),
    ("CC(O)C(N)C(=O)O (stereo not drawn)", "11.7 min"),
    ("CCCCCCCC(=O)OC(CC(=O)[O-])C[N+](C)(C)C (stereo not drawn)", "4.1 min"),
    ("O=c1[nH]cnc2c1ncn2C1OC(CO)C(O)C1O (stereo not drawn)", "8.2 min"),
    ("C[N+](C)(C)CCCC(=O)O", "10.9 min"),
    ("NC(Cc1ccc(O)cc1)C(=O)O (stereo not drawn)", "10.3 min"),
    ("O=c1cc[nH]c(=O)[nH]1", "7.2 min"),
    ("Nc1nc2c(ncn2C2OC(CO)C(O)C2O)c(=O)[nH]1 (stereo not drawn)", "9.8 min"),
    ("CC(C)CC(N)C(=O)O (stereo not drawn)", "7.6 min"),
    ("O=P(O)(O)OCC1OC(O)(COP(=O)(O)O)C(O)C1O (stereo not drawn) [Fructose-1,6-diphosphate]", "15.5 min"),
    ("NC(N)=NCCCC(N)C(=O)O (stereo not drawn)", "24.8 min"),
    ("Nc1ncnc2c1ncn2C1OC(CSCC(N)C(=O)O)C(O)C1O (stereo not drawn)", "10.6 min"),
    ("NCCc1cnc[nH]1", "24.8 min"),
    ("CSCCC(N)C(=O)O (stereo not drawn)", "8.7 min"),
    ("NC(CO)C(=O)O (stereo not drawn)", "13.1 min"),
    ("O=c1[nH]cnc2nc[nH]c12", "7.6 min"),
    ("CN1CC(=O)NC1=N", "6.9 min"),
    ("NC(=O)NCCCC(N)C(=O)O (stereo not drawn)", "13 min"),
    ("Cn1cnc2c(ncn2C2OC(CO)C(O)C2O)c1=N (stereo not drawn)", "11.1 min"),
]
